Tested on: Yersinia pestis (YP; Gram-negative)
Experiment: microbe, parasite or virus in culture
Format: cell-based
Conditions: read-out: MIC YP
experimental.readout: MIC (µg/mL)
Numbers only, in µg/mL.

Known MIC results, listed for orientation:
Record for OC1CCN(CCCOc2c3[nH]c4ccc(F)cc4c3cc3c2[nH]c2ccc(F)cc23)C1 (centres unmarked) under target or system Yersinia pestis (YP; Gram-negative): MIC reported as 8

Record Fc1ccc2[nH]c3c(OCCN4CCCC4)c4[nH]c5ccc(F)cc5c4cc3c2c1 / Yersinia pestis (YP; Gram-negative), MIC recorded as 8

Fill in: Yersinia pestis (YP; Gram-negative) MIC for N[C@H]1CC[C@@H](Oc2c3[nH]c4ccc(F)cc4c3cc3c2[nH]c2ccc(F)cc23)CC1 = 4

NC1CCN(CCCOc2c3[nH]c4ccc(Cl)cc4c3cc3c2[nH]c2ccc(Cl)cc23)CC1 tested on Yersinia pestis (YP; Gram-negative) gave MIC: 4

Known value: Yersinia pestis (YP; Gram-negative) MIC of the compound Fc1ccc2[nH]c3c(OC4CCNCC4)c4[nH]c5ccc(F)cc5c4cc3c2c1 equals 8

Give MIC for all compounds that follow.
1. Clc1ccc2[nH]c3c(OCCCNCc4ncc[nH]4)c4[nH]c5ccc(Cl)cc5c4cc3c2c1
2. Clc1ccc2[nH]c3c(O[C@@H]4CCNC4)c4[nH]c5ccc(Cl)cc5c4cc3c2c1
3. CN(C)CCOc1c2[nH]c3ccc(F)cc3c2cc2c1[nH]c1ccc(F)cc12 [drawing 195]
4. Fc1ccc2[nH]c3c(OC4CCCNC4)c4[nH]c5ccc(F)cc5c4cc3c2c1 (centres unmarked)
5. Clc1ccc2[nH]c3c(OCCCNC4CCNCC4)c4[nH]c5ccc(Cl)cc5c4cc3c2c1

Marked response:
1. 2
2. 1
3. 8
4. 4
5. 2

// for each compound in input: emit MIC
1. Fc1ccc2[nH]c3c(OC4CCNC4)c4[nH]c5ccc(F)cc5c4cc3c2c1 (centres unmarked)
2. CN(C)CCOc1c2[nH]c3ccc(Cl)cc3c2cc2c1[nH]c1ccc(Cl)cc12
3. NCCOc1c2[nH]c3ccc(F)cc3c2cc2c1[nH]c1ccc(F)cc12

Marked response:
1. 1
2. 2
3. 4

Hello, I would appreciate it if you could give MIC for each entry below.
1. Nc1nnc(N)n1CCCOc1c2[nH]c3ccc(Cl)cc3c2cc2c1[nH]c1ccc(Cl)cc12
2. Fc1ccc2[nH]c3c(OC[C@H]4CCCN4)c4[nH]c5ccc(F)cc5c4cc3c2c1

Marked response:
1: 4; 2: 2
